This collection of values is drawn from PubChem BioAssay AID2060885.

- Tested on: NCI-H23 complex spheroids with HUVEC/MSC, viability
- assay explanation: Anticancer human tumor NCI-H23 cell line growth inhibition [RAS];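 also: spheroids exposed to compound for 7 days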;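 as to viability, T/C: 100% = DMSO vehicle control viability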
- condition description: second compound 0.1 µM; first compound 3.16 µM; stronger effect = lower value
measured property: viability, T/C (%)
Answer in %, number only, no unit symbol.

Any idea what its viability, T/C is? The compound is CC(C)NCC(C(=O)N1CCN(c2ncnc3c2C(C)CC3O)CC1)c1ccc(Cl)cc1 (stereo not drawn) + C#Cc1c(F)ccc2cc(O)cc(-c3ncc4c(N5CC6CCC(C5)N6)nc(OCC56CCCN5CC(F)C6)nc4c3F)c12
69.7

For CC(Nc1ccc2c(c1)OCCn1cc(N3C(=O)OCC3C(F)F)nc1-2)C(N)=O (stereo not drawn) + C#Cc1c(F)ccc2cc(O)cc(-c3ncc4c(N5CC6CCC(C5)N6)nc(OCC56CCCN5CC(F)C6)nc4c3F)c12 then?
64.9

For NC1c2ccccc2OC12CCN(c1cnc3c(N4CCCc5ncccc54)n[nH]c3n1)CC2 (stereo not drawn) + C#Cc1c(F)ccc2cc(O)cc(-c3ncc4c(N5CC6CCC(C5)N6)nc(OCC56CCCN5CC(F)C6)nc4c3F)c12 then?
33.9

====

- System: NCI-H23 complex spheroids with HUVEC/MSC, viability
- assay explanation: Anticancer human tumor NCI-H23 cell line growth inhibition [RAS];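 also: spheroids exposed to compound for 7 days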
- condition description: curve of first compound; second compound 0.0316 µM
measured property: IC50

Any idea what its IC50 is? The compound is CCc1c2c(nc3ccc(O)cc13)-c1cc3c(c(=O)n1C2)COC(=O)[C@]3(O)CC + C#Cc1c(F)ccc2cc(O)cc(-c3ncc4c(N5CC6CCC(C5)N6)nc(OCC56CCCN5CC(F)C6)nc4c3F)c12
0.00566 µM

For CCc1c2c(nc3ccc(O)cc13)-c1cc3c(c(=O)n1C2)COC(=O)[C@]3(O)CC + C=CC(=O)N1CCN(c2nc(OCC3CCCN3C)nc3c(F)c(-c4nc(N)cc(C)c4C(F)(F)F)c(Cl)cc23)C(C)C1 then?
< 0.000949 µM

For O=C(c1ccc(F)c(F)c1Nc1ccc(I)cc1F)N1CC(O)([C@@H]2CCCCN2)C1 + C=CC(=O)N1CCN(c2nc(OCC3CCCN3C)nc3c(F)c(-c4nc(N)cc(C)c4C(F)(F)F)c(Cl)cc23)C(C)C1 then?
< 0.00316 µM

For O=C(c1ccc(F)c(F)c1Nc1ccc(I)cc1F)N1CC(O)([C@@H]2CCCCN2)C1 + C#Cc1c(F)ccc2cc(O)cc(-c3ncc4c(N5CC6CCC(C5)N6)nc(OCC56CCCN5CC(F)C6)nc4c3F)c12 then?
0.0826 µM

For Cc1nc(N2CCC3(CC2)COC(C)C3N)c(CO)nc1Sc1ccnc(N)c1Cl (stereo unspecified) + C=CC(=O)N1CCN(c2nc(OCC3CCCN3C)nc3c(F)c(-c4nc(N)cc(C)c4C(F)(F)F)c(Cl)cc23)C(C)C1 then?
< 0.0316 µM

For CC(=O)OC12COC1CC(O)C1(C)C(=O)C(O)C3=C(C)C(OC(=O)C(O)C(NC(=O)OC(C)(C)C)c4ccccc4)CC(O)(C(OC(=O)c4ccccc4)C21)C3(C)C (stereo unspecified) + C#Cc1c(F)ccc2cc(O)cc(-c3ncc4c(N5CC6CCC(C5)N6)nc(OCC56CCCN5CC(F)C6)nc4c3F)c12 then?
< 0.0316 µM

For C[C@@H](NC(=O)c1ncnc(N)c1Cl)c1ncc(C(=O)Nc2cc(C(F)(F)F)c(Cl)cn2)s1 + C#Cc1c(F)ccc2cc(O)cc(-c3ncc4c(N5CC6CCC(C5)N6)nc(OCC56CCCN5CC(F)C6)nc4c3F)c12 then?
> 10 µM

For Cc1nc(N2CCC3(CC2)COC(C)C3N)c(CO)nc1Sc1ccnc(N)c1Cl (stereo unspecified) + C#Cc1c(F)ccc2cc(O)cc(-c3ncc4c(N5CC6CCC(C5)N6)nc(OCC56CCCN5CC(F)C6)nc4c3F)c12 then?
> 10 µM

For CC(Nc1ccc2c(c1)OCCn1cc(N3C(=O)OCC3C(F)F)nc1-2)C(N)=O (stereo unspecified) + C=CC(=O)N1CCN(c2nc(OCC3CCCN3C)nc3c(F)c(-c4nc(N)cc(C)c4C(F)(F)F)c(Cl)cc23)C(C)C1 then?
< 0.0316 µM

For CCN1CCN(Cc2ccc(Nc3ncc(F)c(-c4cc(F)c5nc(C)n(C(C)C)c5c4)n3)nc2)CC1 + C#Cc1c(F)ccc2cc(O)cc(-c3ncc4c(N5CC6CCC(C5)N6)nc(OCC56CCCN5CC(F)C6)nc4c3F)c12 then?
> 1 µM

For CC(Nc1ccc2c(c1)OCCn1cc(N3C(=O)OCC3C(F)F)nc1-2)C(N)=O (stereo unspecified) + C#Cc1c(F)ccc2cc(O)cc(-c3ncc4c(N5CC6CCC(C5)N6)nc(OCC56CCCN5CC(F)C6)nc4c3F)c12 then?
> 10 µM

For C=CC(=O)Nc1cc(Nc2nccc(-c3cn(C)c4ccccc34)n2)c(OC)cc1N(C)CCN(C)C + C=CC(=O)N1CCN(c2nc(OCC3CCCN3C)nc3c(F)c(-c4nc(N)cc(C)c4C(F)(F)F)c(Cl)cc23)C(C)C1 then?
0.00362 µM

For CC(C)NCC(C(=O)N1CCN(c2ncnc3c2C(C)CC3O)CC1)c1ccc(Cl)cc1 (stereo unspecified) + C=CC(=O)N1CCN(c2nc(OCC3CCCN3C)nc3c(F)c(-c4nc(N)cc(C)c4C(F)(F)F)c(Cl)cc23)C(C)C1 then?
< 0.0316 µM

For Nc1ccn(C2OC(CO)C(O)C2(F)F)c(=O)n1 (stereo unspecified) + C#Cc1c(F)ccc2cc(O)cc(-c3ncc4c(N5CC6CCC(C5)N6)nc(OCC56CCCN5CC(F)C6)nc4c3F)c12 then?
0.00553 µM

For CC1(C)CCC(Nc2ncc(C(F)(F)F)c(-c3c[nH]c4c(P(C)(C)=O)c(C#N)ccc34)n2)CN1 (stereo unspecified) + C=CC(=O)N1CCN(c2nc(OCC3CCCN3C)nc3c(F)c(-c4nc(N)cc(C)c4C(F)(F)F)c(Cl)cc23)C(C)C1 then?
< 0.000949 µM

For C=CC(=O)N1CCN(c2nc(OCC3CCCN3C)nc3c(F)c(-c4nc(N)cc(C)c4C(F)(F)F)c(Cl)cc23)C(C)C1 (stereo unspecified) + C#Cc1c(F)ccc2cc(O)cc(-c3ncc4c(N5CC6CCC(C5)N6)nc(OCC56CCCN5CC(F)C6)nc4c3F)c12 then?
0.0115 µM
